Data credit: paper PMC5377317

Target: T1, C-reactive protein (CRP) (human, UniProt P02741 19-224)
T1 sequence: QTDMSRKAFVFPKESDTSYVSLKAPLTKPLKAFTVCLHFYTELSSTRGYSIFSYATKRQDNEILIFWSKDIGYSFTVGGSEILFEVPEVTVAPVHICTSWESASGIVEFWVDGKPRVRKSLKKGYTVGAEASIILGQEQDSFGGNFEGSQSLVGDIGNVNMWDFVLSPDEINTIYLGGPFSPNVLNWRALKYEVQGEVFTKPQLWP
Experiment: magnetic bead pull-down with q-PCR, saturation fit; apparent Kd; 2 mM MgCl2; CRP-MNPs; BD buffer: 50 mM NaH2PO4 pH 8.0, 150 mM NaCl, 5 mM KCl, 2 mM MgCl2, 0.05% Tween-20; room temperature, 30 min; aptamer 1.5625-200 nM
Conditions: protein: commercial; tags: biotinylated (EZ-Link Sulfo-NHS-Biotin), on streptavidin magnetic nanoparticles; chain copies: 5; single strand, small loop predicted by Mfold (dG -2.93 kcal/mol)
parameter: pKd
Answers are plain numbers, as −log10 of the molar value.

Please give the documented pKd of GTTGACGGGCGATTGGTCTT (ssDNA) [PF20N-RO-MARAS-84-1]
7.63
